# Test system: NCI-H441 (Lung Adenocarcinoma);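 further: after 72 h of two-drug dosing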
# protocol.summary: Bliss excess, mean over the matrix (fraction); higher = more synergy
Use -0.04 as the dividing line for Bliss excess, with the line itself on the condition met side and lower values as condition not met.

Please review the entries below; each comes with its answer.
CCc1c2c(nc3ccc(O)cc13)-c1cc3c(c(=O)n1C2)COC(=O)[C@]3(O)CC [SN-38] + O=C(c1cc(Cc2n[nH]c(=O)c3ccccc23)ccc1F)N1CCN(C(=O)C2CC2)CC1 [Olaparib] (first compound max 0.3 µM, 7x7, partner max 10 µM) = condition met
COc1cccc(OCCCN)c1-c1cc(Nc2cnc(C#N)cn2)n[nH]1 [Prexasertib] + C[C@@H]1COCCN1C2=NC(=NC(=C2)C3(CC3)[S@](=N)(=O)C)C4=C5C=CNC5=NC=C4 [AZD6738] (first compound max 1 µM, 7x7, partner max 10 µM) = condition met
NC1(C(=O)N[C@@H](CCO)c2ccc(Cl)cc2)CCN(c2ncnc3[nH]ccc23)CC1 [Capivasertib] + CCN(CCO)CCCOc1ccc2c(Nc3cc(CC(=O)Nc4cccc(F)c4)[nH]n3)ncnc2c1 [AZD2811] (first compound max 10 µM, 7x7, partner max 1 µM) = condition not met
COc1cccc(OCCCN)c1-c1cc(Nc2cnc(C#N)cn2)n[nH]1 [Prexasertib] + CCc1c2c(nc3ccc(O)cc13)-c1cc3c(c(=O)n1C2)COC(=O)[C@]3(O)CC [SN-38] (first compound max 1 µM, 7x7, partner max 0.3 µM) = condition not met
CC1(C)CCC(CN2CCN(c3ccc(C(=O)NS(=O)(=O)c4ccc(NCC5CCOCC5)c([N+](=O)[O-])c4)c(Oc4cnc5[nH]ccc5c4)c3)CC2)=C(c2ccc(Cl)cc2)C1 [Venetoclax] + CN(C)CCCOc1ccc(-c2ccc3ncc4c(c3c2)n(C2CCOCC2)c(=O)n4C)cn1 [AZD0156] (first compound max 1 µM, 7x7, partner max 1 µM) = condition not met

Quick check, Bliss excess >= -0.04? COc1cc2ncnc(Nc3ccc(F)c(Cl)c3)c2cc1OCCCN1CCOCC1 [Gefitinib] + CC(C)n1c(=O)n(C)c2cnc3cc(F)c(-c4ccc(OCCCN5CCCCC5)nc4)cc3c21 [AZD1390] (first compound max 10 µM, 7x7, partner max 0.3 µM)
condition not met

Quick check, Bliss excess >= -0.04? CC1(C)CCC(CN2CCN(c3ccc(C(=O)NS(=O)(=O)c4ccc(NCC5CCOCC5)c([N+](=O)[O-])c4)c(Oc4cnc5[nH]ccc5c4)c3)CC2)=C(c2ccc(Cl)cc2)C1 [Venetoclax] + CCN(CCO)CCCOc1ccc2c(Nc3cc(CC(=O)Nc4cccc(F)c4)[nH]n3)ncnc2c1 [AZD2811] (first compound max 1 µM, 7x7, partner max 1 µM)
condition not met
